- target_system: native mouse MET on living cells (mouse, UniProt P16056 25-1379)
- assay_summary: cell-based or functional assay
Give rule met when the value for MLP29 br. m. (branch n.) is at least 40 branches per spheroid. Give rule not met when it is less.

Field: example entries. Status: answers known.
binder	group
71G3 llama-mouse chimeric mAb (mouse IgG1/lambda) (antibody, V domains shown) VH: QVQLVESGGGLVQPGGSLRVSCAASGFTFSTYYMSWVRQAPGKGLEWVSDIRTDGGTYYADSVKGRFTMSRDNAKNTLYLQMNSLKPEDTALYYCARTRIFPSGYDYWGQGTQVTVSS VL: QAVVTQEPSLSVSPGGTVTLTCGLSSGSVTTSNYPGWFQQTPGQAPRTLIYNTNSRHSGVPSRFSGSISGNKAALTIMGAQPEDEADYYCSLYPGSTTVFGGGTHLTVLG	rule not met
71G2 llama-mouse chimeric mAb (mouse IgG1/lambda) (antibody, V domains shown) VH: EVQLQESGGGLVQPGGSLRLSCAASGFTFSIYDMSWVRQAPGKGLEWVSTINSDGSSTSYVDSVKGRFTISRDNAKNTLYLQMNSLKPEDTAVYYCAKVYGSTWDVGPMGYGMDYWGKGTLVTVSS VL: SSALTQPSALSVSLGQTARITCQGGSLGSSYAHWYQQKPGQAPVLVIYGDDSRPSGIPERFSGSSSGGTATLTISGAQAEDEDDYYCQSTDSSGNTVFGGGTRLTVLG	rule met

*Q* Does the reported MLP29 br. m. (branch n.) for 71D6 chimeric llama-human IgG1 mAb (antibody, V domains shown, human IgG1 CH1-CH2-CH3 and human CL lambda; also called 71D6 Human IgG1/lambda) VH: ELQLVESGGGLVQPGGSLRLSCAASGFTFSSYGMSWVRQAPGKGLEWVSAINSYGGSTSYADSVKGRFTISRDNAKNTLYLQMNSLKPEDTAVYYCAKEVRADLSRYNDYESYDYWGQGTQVTVSS VL: QPVLNQPSALSVTLGQTAKITCQGGSLGARYAHWYQQKPGQAPVLVIYDDDSRPSGIPERFSGSSSGGTATLTISGAQAEDEGDYYCQSADSSGSVFGGGTHLTVL fall at or above the 40 branches per spheroid mark?
*A* rule met

*Q* Does the reported MLP29 br. m. (branch n.) for 71G3 chimeric llama-human IgG1 mAb (antibody, V domains shown, human IgG1 CH1-CH2-CH3 and human CL lambda; also called 71G3 Human IgG1/lambda) VH: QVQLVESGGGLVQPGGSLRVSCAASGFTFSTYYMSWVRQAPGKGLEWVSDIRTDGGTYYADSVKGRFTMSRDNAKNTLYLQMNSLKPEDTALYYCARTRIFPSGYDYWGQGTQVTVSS VL: QAVVTQEPSLSVSPGGTVTLTCGLSSGSVTTSNYPGWFQQTPGQAPRTLIYNTNSRHSGVPSRFSGSISGNKAALTIMGAQPEDEADYYCSLYPGSTTVFGGGTHLTVL fall at or above the 40 branches per spheroid mark?
*A* rule not met

*Q* Does the reported MLP29 br. m. (branch n.) for 71G2 chimeric llama-human IgG1 mAb (antibody, V domains shown, human IgG1 CH1-CH2-CH3 and human CL lambda; also called 71G2 Human IgG1/lambda) VH: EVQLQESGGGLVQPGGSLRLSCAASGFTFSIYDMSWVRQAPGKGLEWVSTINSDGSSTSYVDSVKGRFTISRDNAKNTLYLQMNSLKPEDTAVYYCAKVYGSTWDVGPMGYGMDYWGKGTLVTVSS VL: SSALTQPSALSVSLGQTARITCQGGSLGSSYAHWYQQKPGQAPVLVIYGDDSRPSGIPERFSGSSSGGTATLTISGAQAEDEDDYYCQSTDSSGNTVFGGGTRLTVL fall at or above the 40 branches per spheroid mark?
*A* rule met
